biological target: EWS RRM-RG2-ZnF (UniProt Q01844 361-549); assay: ITC
Sequence (Q01844 361-549): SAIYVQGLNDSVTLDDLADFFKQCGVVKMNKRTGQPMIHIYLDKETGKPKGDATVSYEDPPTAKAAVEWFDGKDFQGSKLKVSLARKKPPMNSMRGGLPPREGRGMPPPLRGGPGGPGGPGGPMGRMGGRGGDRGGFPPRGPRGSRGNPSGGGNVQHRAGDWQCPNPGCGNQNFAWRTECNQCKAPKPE
MEASURED_ATTRIBUTE: pKd
Just so you know, pKd here is -log10 of the concentration in molar units; reply with that number alone.

Query: # query: pKd of entry TAAGGGAGGGCGGGAGGGAA (structured_DNA) [pu20m2 DNA G4]
Result: 5.40
